- System: DU-145
- ASSAY REMARKS: NCI tumour cell line growth inhibition, 48 h
The source made the active and inactive calls. Cut-off read from the data, not from the text of the source: active = GI50 up to about 1.1 µM and inactive = higher.
For each of the compounds below, state its GI50.

Sample records with GI50:
>  <COMPOUND>
CCOC(=O)c1ccc(-c2onc(C)c2Br)[nH]1

>  <GI50>
55.3 µM (inactive)

$$$$
>  <COMPOUND>
O=C(N1CCN(c2ccccc2)CC1)N(C(=O)C1(c2ccc(Cl)cc2)CCCC1)S(=O)(=O)c1ccccc1

>  <GI50>
38.5 µM (inactive)

$$$$
>  <COMPOUND>
O=c1[nH]c2ccc(CC(=S)N3CCN(c4ccccc4)CC3)cc2s1

>  <GI50>
51.6 µM (inactive)

$$$$
>  <COMPOUND>
COc1ccccc1C1(c2c(OC(C)C)c(=O)c2=O)SCCCS1

>  <GI50>
> 100 µM (inactive)

$$$$
>  <COMPOUND>
CNC(=O)ON(C(C)=O)C(=O)NC [CARACEMIDE]

>  <GI50>
41.3 µM (inactive)

$$$$

Provide the reported GI50 of each entry below, same order.
1. COC(=O)c1ccc(-c2nc(C#N)c(N)o2)cc1
2. COc1ccc(CCN2COc3ccc4ccc(=O)oc4c3C2)cc1OC
3. C=CCOC(=O)Cn1ccc(=O)[nH]c1=O

## Output
1. > 100 µM (inactive)
2. > 100 µM (inactive)
3. > 100 µM (inactive)

# per-item lookup of GI50; items listed below
1. COc1ccc2oc3c(C)cc4c(OC)nnc(OC)c4c3c2c1
2. C=CC[C@@]12CCC(=O)C=C1CCCC2=O
3. Cc1ncc([N+](=O)[O-])n1CCNC(=O)CCCn1cnc([N+](=O)[O-])n1

## Output
1. > 100 µM (inactive)
2. > 100 µM (inactive)
3. > 100 µM (inactive)
